Quick reference for normalized RNA/DNA level with ligand (log10) among some variants
B1: library; a variant is named by its letters at N, in order (parent)
chain: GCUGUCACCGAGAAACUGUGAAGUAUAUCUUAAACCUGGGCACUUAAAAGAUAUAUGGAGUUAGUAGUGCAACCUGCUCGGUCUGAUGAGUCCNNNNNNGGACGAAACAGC

Variants of: B1
run description: normalized RNA/DNA level with ligand (relative to sTRSVctl = 100) (log10 (% of sTRSVctl)); HEK293T; ligand: cyclic di-GMP (c-di-GMP-II aptamer); ligand concentration (+) RNA-Seq: 1 mM; higher = less ribozyme self-cleavage, higher mRNA level
experimental context: reporter: mCherry (pCS4076), ligand present: yes
// return a plain number; no unit text

Req: # input variant: GCUGUCACCGAGAAACUGUGAAGUAUAUCUUAAACCUGGGCACUUAAAAGAUAUAUGGAGUUAGUAGUGCAACCUGCUCGGUCUGAUGAGUCCUUUUCCGGACGAAACAGC [UUUUCC] ; wanted: its normalized RNA/DNA level with ligand (log10)
Resp: 1.89

Req: Need normalized RNA/DNA level with ligand (log10), item GCUGUCACCGAGAAACUGUGAAGUAUAUCUUAAACCUGGGCACUUAAAAGAUAUAUGGAGUUAGUAGUGCAACCUGCUCGGUCUGAUGAGUCCCCCAGAGGACGAAACAGC [CCCAGA]
Resp: 1.74

Req: Can you look up the measured normalized RNA/DNA level with ligand (log10) of GCUGUCACCGAGAAACUGUGAAGUAUAUCUUAAACCUGGGCACUUAAAAGAUAUAUGGAGUUAGUAGUGCAACCUGCUCGGUCUGAUGAGUCCUGGAUUGGACGAAACAGC [UGGAUU] for me?
Resp: 1.81

Req: Entry GCUGUCACCGAGAAACUGUGAAGUAUAUCUUAAACCUGGGCACUUAAAAGAUAUAUGGAGUUAGUAGUGCAACCUGCUCGGUCUGAUGAGUCCUACCGAGGACGAAACAGC [UACCGA] has what normalized RNA/DNA level with ligand (log10)?
Resp: 1.77

Req: Could you tell me which normalized RNA/DNA level with ligand (log10) is on file for GCUGUCACCGAGAAACUGUGAAGUAUAUCUUAAACCUGGGCACUUAAAAGAUAUAUGGAGUUAGUAGUGCAACCUGCUCGGUCUGAUGAGUCCAGAAAAGGACGAAACAGC [AGAAAA] ?
Resp: 1.61

Req: Please report the recorded normalized RNA/DNA level with ligand (log10) for GCUGUCACCGAGAAACUGUGAAGUAUAUCUUAAACCUGGGCACUUAAAAGAUAUAUGGAGUUAGUAGUGCAACCUGCUCGGUCUGAUGAGUCCCGUUUGGGACGAAACAGC [CGUUUG] .
Resp: 1.86

Req: Reported normalized RNA/DNA level with ligand (log10), variant GCUGUCACCGAGAAACUGUGAAGUAUAUCUUAAACCUGGGCACUUAAAAGAUAUAUGGAGUUAGUAGUGCAACCUGCUCGGUCUGAUGAGUCCAACAUCGGACGAAACAGC [AACAUC] : ____
Resp: 1.75

Req: Report normalized RNA/DNA level with ligand (log10) for GCUGUCACCGAGAAACUGUGAAGUAUAUCUUAAACCUGGGCACUUAAAAGAUAUAUGGAGUUAGUAGUGCAACCUGCUCGGUCUGAUGAGUCCCCAAUGGGACGAAACAGC [CCAAUG] please.
Resp: 1.49

Req: Using the record for GCUGUCACCGAGAAACUGUGAAGUAUAUCUUAAACCUGGGCACUUAAAAGAUAUAUGGAGUUAGUAGUGCAACCUGCUCGGUCUGAUGAGUCCACUUAUGGACGAAACAGC [ACUUAU] , report its normalized RNA/DNA level with ligand (log10).
Resp: 1.73

Req: Fill in: normalized RNA/DNA level with ligand (log10) of GCUGUCACCGAGAAACUGUGAAGUAUAUCUUAAACCUGGGCACUUAAAAGAUAUAUGGAGUUAGUAGUGCAACCUGCUCGGUCUGAUGAGUCCCUAGGCGGACGAAACAGC [CUAGGC] is ___
Resp: 1.89

Data provenance: the supplement of paper PMC6757056
